- experiment.description: Single bolus dose toxicity in mice
- Type: in vivo
- condition.notes: mouse, in vivo, ip
- Procedure: HI-P131 was not toxic to mice at intraperitoneal single bolus doses ranging from 0.5 mg/kg to 250 mg/kg. […] Thus, the maximum tolerated dose (MlD) of HI-P131 was not reached at 250 mg/kg. We next examined the pharmacokinetic features of HI-P131 in mice. A two-compartment pharmacokinetic model was fit to the pharmacokinetics data obtained following the intravenous (i.v.) or intraperitoneal (i.p.) administration of a single non-toxic 12.5 mg/kg bolus dose of HI-P131.
value.kind: MTD at 30 day

Prompt: Given the molecule `COc1cc2ncnc(Nc3ccc(O)cc3)c2cc1OC` , what is its reported MTD at 30 day?
Completion: > 250 mg/kg

====

- Test system: U373 human brain tumor cells
- experiment.description: MTT cytotoxicity assay, U373
- Assay type: cell-based
- condition.notes: Homo sapiens, U373 MG, Table 5, fluoro-substituted, value ± spread
value.kind: IC50 (µM)
Field format: number, assumed µM, no unit text.

{"columns": ["molecule", "value"],
 "data": [
  ["COc1cc2ncnc(Nc3cccc(OC(F)(F)F)c3)c2cc1OC [HI-P364]", 27.7],
  ["COc1cc2ncnc(Nc3cc(C(F)(F)F)cc(C(F)(F)F)c3)c2cc1OC [HI-P366]", 55.5],
  ["COc1cc2ncnc(Nc3cccc(C(F)(F)F)c3)c2cc1OC [HI-P218]", 29.9],
  ["COc1cc2ncnc(Nc3ccc(S(=O)(=O)F)cc3)c2cc1OC [HI-P232]", 208],
  ["COc1cc2ncnc(Nc3ccc(C(c4ccc(N)cc4)(C(F)(F)F)C(F)(F)F)cc3)c2cc1OC [HI-P352]", 65.5]
]}

Prompt: Given the molecule COc1cc2ncnc(Nc3ccc(F)cc3)c2cc1OC [HI-P221] , what is its reported IC50?
Completion: 28.8

Prompt: Given the molecule COc1cc2ncnc(Nc3cccc(F)c3)c2cc1OC [HI-P224] , what is its reported IC50?
Completion: 22.4

====

- Test system: MOLT-3 human leukemia cells
- experiment.description: MTT cytotoxicity assay, MOLT-3
- Format: cell-based
- condition.notes: Homo sapiens, MOLT-3, Table 2, chloro substituted, 24–36 hours
pIC50: −log10 of the molar value.
value.kind: pIC50

Answered cases to consult:
{"columns": ["smiles.string", "value"],
 "data": [
  ["COc1cc2ncnc(Nc3ccc(Cl)c4ccccc34)c2cc1OC", "< 3.60"],
  ["COc1cc2ncnc(Nc3ccc(O)c(Cl)c3)c2cc1OC", 4.17],
  ["COc1cc2ncnc(Nc3cc(Cl)c(O)c(Cl)c3)c2cc1OC", "< 3.60"]
]}

Prompt: Given the compound `COc1cc2ncnc(Nc3ccccc3Cl)c2cc1OC` , what is its reported pIC50?
Completion: 3.64

Prompt: Given the compound `COc1cc2ncnc(Nc3cc(Cl)ccc3O)c2cc1OC` , what is its reported pIC50?
Completion: < 3.60

Prompt: Given the compound `COc1cc2ncnc(Nc3ccc(Cl)cc3)c2cc1OC` , what is its reported pIC50?
Completion: < 3.60

Prompt: Given the compound `COc1cc2ncnc(Nc3cccc(Cl)c3)c2cc1OC` , what is its reported pIC50?
Completion: < 3.98

====

IC50 values for the molecules below.
- System: NALM-6 human leukemia cells
- experiment.description: MTT cytotoxicity assay, NALM-6
- Format: cell-based
- condition.notes: Homo sapiens, NALM-6, Table 2, chloro substituted, 24–36 hours
Field format: number, assumed µM, no unit text.

Answered cases to consult:
{"columns": ["smiles.string", "IC50 (µM)"],
 "data": [
  ["COc1cc2ncnc(Nc3ccc(Cl)c4ccccc34)c2cc1OC", 67.9],
  ["COc1cc2ncnc(Nc3ccc(O)c(Cl)c3)c2cc1OC", 39.3],
  ["COc1cc2ncnc(Nc3ccccc3Cl)c2cc1OC", 215]
]}

# evaluate next
Prompt: Given the molecule `COc1cc2ncnc(Nc3cccc(Cl)c3)c2cc1OC` , what is its reported IC50?
Completion: 95.9

====

pIC50 values for the compounds below.
- Tested on: NALM-6 human leukemia cells
- experiment.description: MTT cytotoxicity assay, NALM-6
- Type: cell-based
- condition.notes: Homo sapiens, NALM-6, Table 2, chloro substituted, 24–36 hours
pIC50: −log10 of the molar value.

{"columns": ["smiles.string", "pIC50"],
 "data": [
  ["COc1cc2ncnc(Nc3cc(Cl)ccc3O)c2cc1OC", "< 3.60"]
]}

Prompt: Given the compound `COc1cc2ncnc(Nc3cc(Cl)c(O)c(Cl)c3)c2cc1OC` , what is its reported pIC50?
Completion: < 3.60

Prompt: Given the compound `COc1cc2ncnc(Nc3ccc(Cl)cc3)c2cc1OC` , what is its reported pIC50?
Completion: < 3.60
